- System: Escherichia coli TOP10
- run description: shrunken log2 fold change of peptide-encoding DNA abundance (4.5 h post-induction vs induction); higher = less antimicrobial activity (less host growth inhibition)
- conditions: time post-induction: 4.5 h; library: site-saturation at positions 5, 18, 19, 20
measured endpoint: shrunken log2 fold change
Numbers only.

# biosequence, measured endpoint, numeric result
records = [
    ("RRIRARPPRLPRPRPRPLEGPRP", "shrunken log2 fold change", 0.564),
    ("RRIRYRPPRLPRPRPRPNMTPRP", "shrunken log2 fold change", -0.00766),
]

Quick batch: shrunken log2 fold change for everything below.
1. RRIRRRPPRLPRPRPRPCPGPRP
2. RRIRERPPRLPRPRPRPCFWPRP
3. RRIRCRPPRLPRPRPRPGLHPRP
4. RRIRVRPPRLPRPRPRPIMFPRP
5. RRIRSRPPRLPRPRPRPFNDPRP
6. RRIRMRPPRLPRPRPRPQCMPRP

Reply text:
1: -0.196; 2: -0.176; 3: -0.131; 4: -0.0691; 5: -0.223; 6: -0.0822

* * *

Assign shrunken log2 fold change to each entry below.
- Tested on: Escherichia coli TOP10;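 note: peptides expressed intracellularly from a pBAD plasmid library in pooled LB shake-flask culture, induced with 0.3% L-arabinose, DNA abundance read by NGS, three biological replicates, DESeq2 with apeglm shrinkage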
- run description: shrunken log2 fold change of peptide-encoding DNA abundance (4.5 h post-induction vs induction); higher = less antimicrobial activity (less host growth inhibition)
- conditions: time post-induction: 4.5 h; library: site-saturation at positions 5, 18, 19, 20
Give bare numbers.

Check out these entries, answers already filled in.
# biosequence, shrunken log2 fold change
data = [
    ("RRIRCRPPRLPRPRPRPMHHPRP", -0.796),
    ("RRIRNRPPRLPRPRPRPFFAPRP", 0.201),
    ("RRIRVRPPRLPRPRPRPFLHPRP", -0.13),
    ("RRIRNRPPRLPRPRPRPLGSPRP", -0.0602),
    ("RRIRKRPPRLPRPRPRPLMTPRP", 0.175),
    ("RRIRNRPPRLPRPRPRPDYYPRP", -1.4),
    ("RRIRTRPPRLPRPRPRPTYEPRP", -0.174),
    ("RRIRSRPPRLPRPRPRPLNVPRP", -0.0872),
]

Quick batch: shrunken log2 fold change for everything below.
1. RRIRYRPPRLPRPRPRPFNEPRP
2. RRIRNRPPRLPRPRPRPVFPPRP
3. RRIRRRPPRLPRPRPRPFRYPRP

Reply text:
1: -1.01; 2: -0.000239; 3: 0.292

Quick batch: shrunken log2 fold change for everything below.
1. RRIRSRPPRLPRPRPRPGPDPRP
2. RRIRLRPPRLPRPRPRPQYDPRP
3. RRIRYRPPRLPRPRPRPSKLPRP
4. RRIRRRPPRLPRPRPRPSGCPRP
5. RRIRRRPPRLPRPRPRPAVYPRP

Reply text:
1. 0.332
2. -0.155
3. -0.917
4. 0.212
5. 0.0519

Quick batch: shrunken log2 fold change for everything below.
1. RRIRLRPPRLPRPRPRPNVFPRP
2. RRIRVRPPRLPRPRPRPWVGPRP
3. RRIRYRPPRLPRPRPRPKRLPRP
4. RRIRFRPPRLPRPRPRPMEDPRP
5. RRIRMRPPRLPRPRPRPCIWPRP
6. RRIRSRPPRLPRPRPRPESPPRP
7. RRIRNRPPRLPRPRPRPRSDPRP

Reply text:
1. -0.301
2. -0.0497
3. -0.102
4. -0.015
5. 0.0563
6. 0.32
7. 0.0587

Quick batch: shrunken log2 fold change for everything below.
1. RRIRQRPPRLPRPRPRPFSQPRP
2. RRIRPRPPRLPRPRPRPMKNPRP
3. RRIRTRPPRLPRPRPRPIHKPRP
4. RRIRKRPPRLPRPRPRPPPWPRP
5. RRIRERPPRLPRPRPRPPWEPRP

Reply text:
1: 0.0178; 2: 0.212; 3: -0.281; 4: 1.03; 5: 0.145

Quick batch: shrunken log2 fold change for everything below.
1. RRIRIRPPRLPRPRPRPAMTPRP
2. RRIRARPPRLPRPRPRPEILPRP
3. RRIRERPPRLPRPRPRPRFSPRP
4. RRIRFRPPRLPRPRPRPPRLPRP

Reply text:
1: -0.366; 2: 0.74; 3: -0.0175; 4: 0.399
